EXPERIMENTAL_SYSTEM: Ubiquitin carboxyl-terminal hydrolase 17-like protein 5 (Homo sapiens) (UniProt A8MUK1)
Sequence (A8MUK1 whole entry, looked up): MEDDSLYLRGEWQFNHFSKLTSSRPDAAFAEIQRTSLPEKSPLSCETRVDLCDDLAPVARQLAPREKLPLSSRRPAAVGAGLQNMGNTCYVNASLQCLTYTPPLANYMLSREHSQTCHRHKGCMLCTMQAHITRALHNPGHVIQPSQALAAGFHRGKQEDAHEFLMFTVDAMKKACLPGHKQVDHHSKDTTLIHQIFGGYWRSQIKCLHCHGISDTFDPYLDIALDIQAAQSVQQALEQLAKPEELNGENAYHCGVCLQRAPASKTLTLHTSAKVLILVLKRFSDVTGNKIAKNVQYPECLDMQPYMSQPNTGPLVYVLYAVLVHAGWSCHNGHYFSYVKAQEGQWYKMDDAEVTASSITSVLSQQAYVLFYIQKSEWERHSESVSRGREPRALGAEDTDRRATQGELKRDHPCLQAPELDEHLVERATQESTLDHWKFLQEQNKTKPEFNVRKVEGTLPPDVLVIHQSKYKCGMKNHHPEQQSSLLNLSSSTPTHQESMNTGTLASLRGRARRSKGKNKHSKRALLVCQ
MEASUREMENT_NOTES: ubiquitin-specific protease 17 DUB inhibitors, concentration-effect assay, cell-free, verification of initial screening actives (AID 1645864)
SETUP_CONDITIONS: purified USP17, ubiquitin-rhodamine cleavage fluorescence, 3 h
The source made the active and inactive calls.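 The calls were made as follows: active = maximal inhibition of USP17 at or above 30% in the confirmation dose-response, a value not among the printed readouts; inactive = the rest.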
Outcome codes: TRUE (active), FALSE (inactive)

MOLECULE | CLASSIFICATION
COc1cccc(NC(=O)CCc2c(C)nn(-c3cc(N4CCCCC4)ncn3)c2C)c1 | FALSE
O=C(COc1ccc(Cl)cc1Cl)Nc1ccc2[nH]c(=O)[nH]c2c1 | TRUE
O=C(COc1ccc(F)cc1)Nc1cc(F)c2nc(N3CCOCC3)ccc2c1 | TRUE
CCc1ccc(C(C)NC(=O)C2CCN(c3ccc4nncn4n3)CC2)cc1 (stereo unspecified) | FALSE
O=S(=O)(Nc1ccc(O)cc1)c1ccc2oc3ccc(S(=O)(=O)Nc4ccc(O)cc4)cc3c2c1 | TRUE
COc1ccc(OC)c(-c2c(C#N)c(C)nc3c2N2CCC3CC2)c1 | TRUE
N#Cc1c(-c2cccs2)cc(-c2cccs2)[nH]c1=O | FALSE
O=C(Nc1cccc(Cl)c1)N1CCN(c2cc(C(F)(F)F)ccn2)CC1 | TRUE
O=c1[nH]c(C2CCN(S(=O)(=O)c3ccc(S(=O)(=O)NC4CCCCC4)cc3)CC2)nc2c1nnn2Cc1c(F)cccc1Cl | TRUE
CCCCNC(=O)C1Sc2nnc(-c3ccccc3)n2NC1c1ccccc1 (stereo unspecified) | TRUE
Cc1cccc(Cl)c1NC(=O)Nc1ccc(NC(=O)c2ccccc2O)cc1 | TRUE
COc1ccc(C(C)NC(=O)c2cnc(-c3ccccc3)nc2-c2ccncc2)cc1 (stereo unspecified) | FALSE
Cc1cc2c(cc1C)NC(CC(=O)Nc1ccc(O)cc1)C(=O)N2 (stereo unspecified) | TRUE
COc1cccc(/C=C/C(=O)Nc2ccc(N3CCOCC3)cc2)c1OC | FALSE
CC(C)NC(=O)CN1C(=O)CC(C)Sc2ccc(S(=O)(=O)N3CCCCC3)cc21 (stereo unspecified) | TRUE
Cc1nc(-c2ccccc2F)sc1C(=O)Nc1cccnc1 | TRUE
O=C(Nc1cc(F)c2nc(N3CCOCC3)ccc2c1)C1CC1 | TRUE
COc1cccc(CNC(=O)c2ccc3c(c2)NC(=O)C2CCCN32)c1OC (stereo unspecified) | FALSE
c1ccc2c(Cc3nc(-c4ccncc4)no3)cccc2c1 | FALSE
Cc1noc(-c2cc(=O)n(CC(=O)NCc3ccccc3F)c3ccccc23)n1 | TRUE
COc1ccc(-c2cc(C(C)=O)c(C)n2CCC(=O)Nc2ccc(OC)cc2OC)cc1 | TRUE
